Read-out: Lipoprotein lipase (LPL), LPL (gene 4023)
test_name: LTEA_HepaRG_LPL: Life Technologies and Expression Analysis (LTEA) Assay for Lipoprotein lipase (LPL) using HepaRG (AID 2283515)
condition_label: mRNA level, 48 h; actives raise or lower the signal
Experimental: LTEA_HepaRG is a cell based, multiplexed-readout assay that uses HepaRG, a human liver cell line, with measurements taken at 48 hours after chemical dosing on a 96-well plate.LTEA_HepaRG_LPL is one of 102 assay component(s) measured in the LTEA HepaRG cell culture assay. It is a marker of Steatosis.Data from the assay component LTEA_HepaRG_LPL was analyzed into 1 endpoint. […]
Active and inactive are the calls of the source. The calls were made as follows: active = hit-call score of the fitted dose curve at least 0.9, where 1 is the maximum; inactive = score below 0.9.
Outcomes: label 1 = active, label 0 = inactive

molecule: CC(C)(C)c1ccc(CSc2cnn(C(C)(C)C)c(=O)c2Cl)cc1
label: label 1

molecule: COc1ccc(C(c2ccc(OC)cc2)C(Cl)(Cl)Cl)cc1
label: label 1

molecule: CCON=C(CC)C1=C(O)CC(c2c(C)cc(C)cc2C)CC1=O (stereo not given)
label: label 0

molecule: C=CCC1=C(C)C(OC(=O)C2C(C=C(C)C)C2(C)C)CC1=O (stereo not given)
label: label 0

molecule: N#Cc1nn(-c2c(Cl)cc(C(F)(F)F)cc2Cl)c(N)c1S(=O)C(F)(F)F (stereo not given)
label: label 1

molecule: COP(=S)(OC)Oc1nc(Cl)c(Cl)cc1Cl
label: label 0

molecule: CCCCNC(=O)n1c(NC(=O)OC)nc2ccccc21
label: label 0

molecule: O=C(O)COc1nc(Cl)c(Cl)cc1Cl
label: label 0

molecule: COc1cnc(OC)n2nc(NS(=O)(=O)c3c(OCC(F)F)cccc3C(F)(F)F)nc12
label: label 0

molecule: CC1COC(Cn2cncn2)(c2ccc(Oc3ccc(Cl)cc3)cc2Cl)O1 (stereo not given)
label: label 1

* * *

test_name: APR_HepG2_CellCycleArrest_24hr: Apredica 24-hour HepG2 Assay for Cell Cycle Arrest (AID 2282905);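 also: cell cycle arrest scored as ratio of 2N to 4N nuclear DNA content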
condition_label: imaging, actives raise or lower the signal
Calls of active or inactive are those of the source. Rule for the calls: active = hit-call score of the fitted dose curve at least 0.9, where 1 is the maximum; inactive = score below 0.9.
assay_metric: AC50

compound: N#Cc1nn(-c2c(Cl)cc(C(F)(F)F)cc2Cl)c(N)c1S(=O)C(F)(F)F (stereo unspecified)
value_reported: 50.9 µM (active)

compound: CCCCNC(=O)n1c(NC(=O)OC)nc2ccccc21
value_reported: 22.7 µM (active)

compound: CN(C)C(=S)SSC(=S)N(C)C
value_reported: inactive

compound: CC(C)C1(C)N=C(c2nc3ccccc3cc2C(=O)O)NC1=O (stereo unspecified)
value_reported: inactive

compound: CC(C)(C)c1ccc(CSc2cnn(C(C)(C)C)c(=O)c2Cl)cc1
value_reported: 16.1 µM (active)

compound: CCNc1nc(Cl)nc(NCC)n1
value_reported: inactive

* * *

test_name: Tanguay_ZF_120hpf_ActivityScore_legacy: (Legacy) Oregon State University Tanguay Lab 120 Hour Post-fertilization zebrafish Assay Score for Activity (AID 2283742)
The source made the active and inactive calls. Rule for the calls: active = hit-call score of the fitted dose curve at least 0.9, where 1 is the maximum; inconclusive = response in the unintended direction; inactive = score below 0.9.
Outcomes: active, inactive

compound: COc1ccc(C(c2ccc(OC)cc2)C(Cl)(Cl)Cl)cc1
label: inactive
//
compound: CC(Oc1ccc(Cl)cc1Cl)C(=O)O (configuration not stated)
label: inactive
//
compound: COC(=O)c1ccccc1C(=O)OC
label: inactive
//
compound: CCOc1cc(Oc2ccc(C(F)(F)F)cc2Cl)ccc1[N+](=O)[O-]
label: inactive
//
compound: CCOC(=O)C(Cl)Cc1cc(-n2nc(C)n(C(F)F)c2=O)c(F)cc1Cl (configuration not stated)
label: active
//
compound: Fc1ccc(Oc2ccnc3cc(Cl)cc(Cl)c23)cc1
label: inactive
//
compound: CC(C)(C)c1ccc(CSc2cnn(C(C)(C)C)c(=O)c2Cl)cc1
label: active
//
compound: CC1COC(Cn2cncn2)(c2ccc(Oc3ccc(Cl)cc3)cc2Cl)O1 (configuration not stated)
label: inactive
//
compound: CC(C)Oc1cc(-n2nc(C(C)(C)C)oc2=O)c(Cl)cc1Cl
label: inactive
//
compound: Cc1c(F)c(F)c(COC(=O)C2C(/C=C(\Cl)C(F)(F)F)C2(C)C)c(F)c1F (configuration not stated)
label: active
//
compound: Cc1ccc(-c2c(Cl)nc(C#N)n2S(=O)(=O)N(C)C)cc1
label: active
//
compound: CNC(=S)S
label: inactive

The reported numbers originate from PubChem BioAssay (EPA / NIEHS).
